target-or-system: human TLR9 (Homo sapiens)
Sequence (Q9NR96 26-1032): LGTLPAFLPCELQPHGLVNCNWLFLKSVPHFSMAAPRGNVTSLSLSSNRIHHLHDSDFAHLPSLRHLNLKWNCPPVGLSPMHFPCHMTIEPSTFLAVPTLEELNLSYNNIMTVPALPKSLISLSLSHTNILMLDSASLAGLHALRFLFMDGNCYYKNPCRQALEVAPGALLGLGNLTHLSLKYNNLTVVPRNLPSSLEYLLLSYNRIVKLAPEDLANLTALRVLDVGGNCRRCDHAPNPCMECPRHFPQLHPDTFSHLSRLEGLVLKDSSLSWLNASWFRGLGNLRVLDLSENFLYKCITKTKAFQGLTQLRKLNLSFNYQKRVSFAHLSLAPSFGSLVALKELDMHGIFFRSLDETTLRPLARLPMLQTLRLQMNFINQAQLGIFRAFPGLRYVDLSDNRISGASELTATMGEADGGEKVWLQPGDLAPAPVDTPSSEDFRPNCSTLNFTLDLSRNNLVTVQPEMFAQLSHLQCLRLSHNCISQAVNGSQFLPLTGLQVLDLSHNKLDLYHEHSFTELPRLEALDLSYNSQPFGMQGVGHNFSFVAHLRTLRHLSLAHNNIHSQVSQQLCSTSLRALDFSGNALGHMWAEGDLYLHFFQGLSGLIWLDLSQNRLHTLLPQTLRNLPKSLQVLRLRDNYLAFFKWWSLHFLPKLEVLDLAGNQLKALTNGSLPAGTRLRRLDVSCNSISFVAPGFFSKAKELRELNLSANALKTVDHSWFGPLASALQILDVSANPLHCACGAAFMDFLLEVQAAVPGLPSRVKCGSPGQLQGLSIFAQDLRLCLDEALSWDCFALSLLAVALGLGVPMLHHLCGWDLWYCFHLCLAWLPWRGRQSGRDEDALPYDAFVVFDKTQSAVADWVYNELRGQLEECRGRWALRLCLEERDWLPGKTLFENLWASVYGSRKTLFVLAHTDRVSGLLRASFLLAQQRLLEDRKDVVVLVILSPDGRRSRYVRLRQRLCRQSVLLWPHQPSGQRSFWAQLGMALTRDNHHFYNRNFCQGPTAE
protocol-description: TLR9 inhibition reporter assay (HEK-Blue cells, SEAP reporter, ODN2006 stimulation)
condition-parameters: HEK-Blue cells overexpressing human TLR9, SEAP reporter, ODN2006 5 nM
pIC50: −log10 of the molar value.
property-label: pIC50

Would you please look over these solved cases?
• CC(C)c1c(-c2ccnc3[nH]c(=O)[nH]c23)[nH]c2ccc(C3CCNCC3)cc12 = 4.30 to 6.00
• CNC(=O)CN1CCC(c2ccc3[nH]c(-c4ccc5nc(C)cn5c4)c(CC(F)F)c3c2)CC1 = 6.00 to 7.00
• CCc1c(-c2ccnc3[nH]cc(Cl)c23)[nH]c2ccc(C3CCNCC3)cc12 = 4.30 to 6.00
• CCc1c(-c2cnc3cncc(OC)n23)[nH]c2ccc(C3CCNCC3)cc12 = 6.00 to 7.00
• Cc1cc(-c2[nH]c3ccc(C4CCN(C(=O)CN5CCC(F)(F)C5)CC4)cc3c2C(C)C)cn2nnnc12 = < 4.30

Quick batch: pIC50 for everything below.
1. Cc1ccnc2c1c(-c1[nH]c3ccc(C4CCNCC4)cc3c1C(C)C)cn2C
2. CC(C)c1c(-c2ccc3scnc3c2)[nH]c2ccc(C3CCNCC3)cc12
3. Cc1ccc(-c2[nH]c3ccc(C4CCN(CC(=O)N(C)C)CC4)cc3c2C(C)C)c2ncnn12
4. Cc1cc(-c2[nH]c3ccc(C4CCN(C5COC5)CC4)cc3c2C(C)C)cc2nccn12
5. Cc1cc(-c2[nH]c3ccc(C4CCN(C(=O)CN(C)C)CC4)cc3c2C(C)C)cn2nnnc12

["4.30 to 6.00", "6.00 to 7.00", "4.30 to 6.00", "4.30 to 6.00", "4.30 to 6.00"]

---

target-or-system: human TLR8 (Homo sapiens)
Sequence (Q9NR97 27-1041): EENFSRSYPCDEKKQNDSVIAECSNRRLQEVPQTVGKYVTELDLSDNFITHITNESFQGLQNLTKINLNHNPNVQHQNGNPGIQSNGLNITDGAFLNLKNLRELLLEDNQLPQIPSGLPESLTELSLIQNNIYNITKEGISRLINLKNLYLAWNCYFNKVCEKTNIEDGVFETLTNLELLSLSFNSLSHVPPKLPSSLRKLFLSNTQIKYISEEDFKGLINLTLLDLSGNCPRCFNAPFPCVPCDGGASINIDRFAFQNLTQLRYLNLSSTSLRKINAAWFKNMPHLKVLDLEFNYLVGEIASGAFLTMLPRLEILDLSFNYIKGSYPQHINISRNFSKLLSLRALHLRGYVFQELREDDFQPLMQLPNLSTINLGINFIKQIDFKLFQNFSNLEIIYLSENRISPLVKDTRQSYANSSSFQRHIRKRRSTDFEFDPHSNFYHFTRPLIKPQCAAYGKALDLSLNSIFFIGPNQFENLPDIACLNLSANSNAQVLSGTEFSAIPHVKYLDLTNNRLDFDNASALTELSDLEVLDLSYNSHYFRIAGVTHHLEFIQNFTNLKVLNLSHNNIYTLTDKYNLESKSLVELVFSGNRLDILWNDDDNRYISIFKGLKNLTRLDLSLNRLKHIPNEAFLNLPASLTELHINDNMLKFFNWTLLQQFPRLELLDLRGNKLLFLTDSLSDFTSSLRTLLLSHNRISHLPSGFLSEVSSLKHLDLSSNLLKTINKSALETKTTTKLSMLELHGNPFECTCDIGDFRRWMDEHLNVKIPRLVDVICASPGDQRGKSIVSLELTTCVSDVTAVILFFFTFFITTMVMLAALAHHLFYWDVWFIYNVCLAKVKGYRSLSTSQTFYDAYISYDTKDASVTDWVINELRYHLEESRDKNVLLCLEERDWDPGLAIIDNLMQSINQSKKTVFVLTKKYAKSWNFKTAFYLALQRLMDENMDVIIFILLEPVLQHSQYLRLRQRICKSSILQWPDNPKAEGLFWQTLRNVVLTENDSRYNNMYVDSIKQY
protocol-description: TLR8 inhibition reporter assay (HEK-Blue cells, SEAP reporter, R848 stimulation)
condition-parameters: HEK-Blue cells overexpressing human TLR8, SEAP reporter, R848 15.9 μM
Excerpt: TLR7/8/9 Inhibition Reporter Assays HEK-Blue™-cells (Invivogen) overexpressing human TLR7, TLR8 or TLR9 receptors were used for screening inhibitors of these receptors using an inducible SEAP (secreted embryonic alkaline phosphatase) reporter gene under the control of the IFN-β minimal promoter fused to five NF-κB and AP-1-binding sites. […]
pIC50: −log10 of the molar value.
Provide the reported pIC50 of each item.

Would you please look over these solved cases?
• COc1ccc(CN2CCC(c3ccc4[nH]c(-c5ccc6nccn6c5)c(C(C)C)c4c3)CC2)cn1 = > 7.00
• COc1cc(-c2[nH]c3ccc(C4CCN(CC#N)CC4)cc3c2C(C)C)cn2ccnc12 = > 7.00
• CNCCN1CCC(c2ccc3[nH]c(-c4ccnc5[nH]ncc45)c(C(C)C)c3c2)C(F)C1 (stereo not shown) [Example 675] = > 7.00
• Cc1nnn2ccc(-c3[nH]c4ccc(C5CCN(C6CCS(=O)(=O)CC6)CC5)cc4c3C(C)C)cc12 = > 7.00
• CC(C)c1c(-c2cn(C)c3ncccc23)[nH]c2ccc(C3CCN(CC(C)(C)O)CC3)cc12 = > 7.00

Quick batch: pIC50 for everything below.
1. CC(C)c1c(-c2ccnc3[nH]ncc23)[nH]c2ccc(C3CCN(Cc4cccnc4)CC3)cc12
2. CNCCN1CCC(c2ccc3[nH]c(-c4cncc5ccccc45)c(C)c3c2)CC1 [Example 663]
3. CNC(=O)CN1CCC(c2ccc3[nH]c(-c4cn5ccnc5c(C)c4C)c(C(C)C)c3c2)CC1
4. CC(C)c1c(-c2ccc3nccn3n2)[nH]c2ccc(C3CCNCC3)cc12

1: > 7.00; 2: < 5.51; 3: > 7.00; 4: > 7.00

Quick batch: pIC50 for everything below.
1. CNC(=O)CN1CCC(c2ccc3[nH]c(-c4ccnc5[nH]ncc45)c(CC(F)F)c3c2)CC1
2. CC(C)c1c(-c2ccnc3[nH]ncc23)[nH]c2ccc(C3CCN(C(=O)CNCC(C)(C)N4CCOCC4)CC3)cc12
3. CC(C)c1c(-c2ccnc3[nH]ncc23)[nH]c2ccc(C3CCN(Cc4cnc5ccccc5c4)CC3)cc12
4. CNC(=O)CN1CCC(c2ccc3[nH]c(-c4ccc(C#N)c5ncccc45)c(C(C)C)c3c2)CC1
5. COc1cc(-c2[nH]c3ccc(C4CCNCC4)cc3c2C(C)C)cc2nccn12
6. CC(C)c1c(-c2cccn3ncnc23)[nH]c2ccc(C3CCN(C(=O)CN(C)C)CC3)cc12

1: > 7.00; 2: > 7.00; 3: > 7.00; 4: > 7.00; 5: 6.00 to 7.00; 6: 6.00 to 7.00

Give the measured pIC50 of CC(C)c1c(-c2ncnn3cccc23)[nH]c2ccc(C3CCNCC3)cc12 .
6.00 to 7.00
